Reported EC50 is given for each of the following molecules.
measurementTarget: human GPR119 receptor (Homo sapiens, UniProt Q8TDV5, S329A/T327A)
Construct: N-terminal leader […]; expressed in transfected cells
measurementDescription: cAMP assay (LANCE cAMP-384) in HEK293 cells stably expressing mutant human GPR119 receptor
Assay type: cell-based
protocolConditions: the 28th table; read-out: EC50
measuredQuantity: EC50

1. CC(C)OC(=O)N1CCC(ON=C2CCN(c3ncc(-n4cccn4)cc3F)CC2)CC1 = 558 nM
2. CC(C)OC(=O)N1CCC(ON=C2CCN(c3ncc(N4CCCC4=O)cc3F)CC2)CC1 = 401 nM
3. CC(C)OC(=O)N1CCC(ON=C2CCN(c3ncc(-n4cncn4)cn3)CC2)CC1 = 735 nM
4. CC(C)OC(=O)N1CCC(ON=C2CCN(c3ncc(-n4cncn4)cc3F)CC2)CC1 = 327 nM

###

measurementTarget: human GPR119 receptor (Homo sapiens, UniProt Q8TDV5, S329A/T327A)
Construct: N-terminal leader […]; expressed in transfected cells
Sequence (Q8TDV5 with tags, fused parts or gaps T327A/S329A): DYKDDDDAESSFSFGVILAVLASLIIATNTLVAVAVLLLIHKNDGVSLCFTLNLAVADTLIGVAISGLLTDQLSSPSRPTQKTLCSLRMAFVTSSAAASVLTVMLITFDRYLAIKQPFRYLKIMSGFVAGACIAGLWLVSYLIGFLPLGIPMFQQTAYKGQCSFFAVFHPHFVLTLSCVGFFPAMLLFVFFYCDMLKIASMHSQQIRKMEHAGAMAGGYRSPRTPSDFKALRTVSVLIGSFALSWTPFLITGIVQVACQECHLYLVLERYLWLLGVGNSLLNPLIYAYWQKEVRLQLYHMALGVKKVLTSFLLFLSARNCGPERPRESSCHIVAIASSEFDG
measurementDescription: cAMP assay (LANCE cAMP-384) in HEK293 cells stably expressing mutant human GPR119 receptor
Assay type: cell-based
protocolConditions: the 25th table; read-out: EC50
Listing of recorded EC50 by entry.
measuredQuantity: EC50 (nM)

1. COC(=O)/C=C/c1cc(F)c(N2CCC(=NOC3CCN(C(=O)OC(C)C)CC3)CC2)cc1F = 46
2. CC(C)OC(=O)N1CCC(ON=C2CCN(c3cc(F)c(/C=C/C#N)cc3F)CC2)CC1 = 157

###

measurementTarget: human GPR119 receptor (Homo sapiens, UniProt Q8TDV5, S329A/T327A)
Construct: N-terminal leader […]; expressed in transfected cells
measurementDescription: cAMP assay (LANCE cAMP-384) in HEK293 cells stably expressing mutant human GPR119 receptor
Assay type: cell-based
protocolConditions: HEK293, 20 min; at 10 μM; printed in EC50 column of the 36th table; read-out: stimulation in % at 10 μM
Method: Quantitative detection of cAMP accumulation from cells expressing human GPR119 receptor was achieved using Perkin Elmer's LANCE cAMP-384 Kit (Cat#AD0264) according to the manufacturer's protocol. […] After 1 hour, bound europium-labeled cAMP tracer was measured using a Perkin Elmer ViewLux. The quantity of cAMP generated in each well was derived from a standard curve. […]
Each entry below lists one item and its recorded activation at 10 µM value.
measuredQuantity: activation at 10 µM

1. CCc1ncc(CN2CCC(ON=C3CCN(c4ccc(S(C)(=O)=O)cc4F)CC3)CC2)cn1 [Example 66-49] = 75%
2. CC(CCN1CCC(ON=C2CCN(c3ccc(S(C)(=O)=O)cc3F)CC2)CC1)c1ccccc1 (centres unmarked) [Example 66-24] = 53%
3. CS(=O)(=O)c1ccc(N2CCC(=NOC3CCN(Cc4nccs4)CC3)CC2)c(F)c1 [Example 66-6] = 63%
4. CC(C)CN1CCC(ON=C2CCN(c3ccc(S(C)(=O)=O)cc3F)CC2)CC1 [Example 66-21] = 64%
5. CS(=O)(=O)c1ccc(N2CCC(=NOC3CCN(Cc4ccc5c(c4)OCO5)CC3)CC2)c(F)c1 [Example 66-37] = 87%
6. Cc1ccc(CN2CCC(ON=C3CCN(c4ccc(S(C)(=O)=O)cc4F)CC3)CC2)c(F)c1F [Example 66-48] = 99%
7. COc1ccccc1CN1CCC(ON=C2CCN(c3ccc(S(C)(=O)=O)cc3F)CC2)CC1 [Example 66-18] = 66%
8. CS(=O)(=O)c1ccc(N2CCC(=NOC3CCN(Cc4ccc5c(c4)CCO5)CC3)CC2)c(F)c1 [Example 66-35] = 61%

###

measurementTarget: human GPR119 receptor (Homo sapiens, UniProt Q8TDV5, S329A/T327A)
Construct: N-terminal leader […]; expressed in transfected cells
measurementDescription: cAMP assay (LANCE cAMP-384) in HEK293 cells stably expressing mutant human GPR119 receptor
Format: cell-based
protocolConditions: the 29th table; read-out: EC50
pEC50: −log10 of the molar value.
measuredQuantity: pEC50

1. CC(C)OC(=O)N1CCC(ON=C2CCN(c3ccc(CO)cc3F)CC2)CC1 = 6.89

###

Entries and their measured activation at 10 µM follow.
measurementTarget: human GPR119 receptor (Homo sapiens, UniProt Q8TDV5, S329A/T327A)
Construct: N-terminal leader […]; expressed in transfected cells
measurementDescription: cAMP assay (LANCE cAMP-384) in HEK293 cells stably expressing mutant human GPR119 receptor
Format: cell-based
protocolConditions: HEK293, 20 min; single concentration 10 μM; given where no EC50 value could be determined; read-out: % stimulation at 10 μM
measuredQuantity: activation at 10 µM (%)

1) CC(C)OC(=O)N1CCC(ON=C2CCN(c3cc(F)c(-c4nnn[nH]4)cc3F)CC2)CC1 = 86
2) CNCc1cc(F)c(N2CCC(=NOC3CCN(C(=O)OC(C)C)CC3)CC2)cc1F = 78
3) CC(C)OC(=O)N1CCC(ON=C2CCN(c3nccc(CO)c3F)CC2)CC1 = 79
4) COc1ncc(-c2cc(F)c(N3CCC(=NOC4CCN(C(=O)OC(C)C)CC4)CC3)cc2F)c(OC)n1 = 70
5) Cc1cccnc1N1CCC(=NOC2CCN(C(=O)OC(C)C)CC2)CC1 = 55
6) CC(C)OC(=O)N1CCC(ON=C2CCN(c3cc(Br)ccn3)CC2)CC1 = 54
7) CC(C)OC(=O)N1CCC(ON=C2CCN(c3cc(F)c(CN4CCOCC4)cc3F)CC2)CC1 = 69
8) CC(C)OC(=O)N1CCC(ON=C2CCN(c3cc(F)c(C(=N)N)cc3F)CC2)CC1 = 3

###

measurementTarget: human GPR119 receptor (Homo sapiens, UniProt Q8TDV5, S329A/T327A)
Construct: N-terminal leader […]; expressed in transfected cells
Sequence (Q8TDV5 with tags, fused parts or gaps T327A/S329A): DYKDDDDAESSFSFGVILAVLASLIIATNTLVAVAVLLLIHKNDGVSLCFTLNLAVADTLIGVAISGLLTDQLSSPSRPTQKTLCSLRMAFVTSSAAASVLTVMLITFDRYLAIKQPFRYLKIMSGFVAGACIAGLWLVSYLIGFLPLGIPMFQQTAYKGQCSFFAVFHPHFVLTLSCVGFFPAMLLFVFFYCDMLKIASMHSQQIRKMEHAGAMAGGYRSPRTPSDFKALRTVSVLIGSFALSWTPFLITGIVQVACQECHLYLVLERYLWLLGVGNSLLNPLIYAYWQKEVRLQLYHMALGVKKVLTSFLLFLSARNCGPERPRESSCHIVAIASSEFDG
measurementDescription: cAMP assay (LANCE cAMP-384) in HEK293 cells stably expressing mutant human GPR119 receptor
Type: cell-based
protocolConditions: the 44th table, compounds 77-1 to 77-14; read-out: EC50
Procedure: Quantitative detection of cAMP accumulation from cells expressing human GPR119 receptor was achieved using Perkin Elmer's LANCE cAMP-384 Kit (Cat#AD0264) according to the manufacturer's protocol. […] After 1 hour, bound europium-labeled cAMP tracer was measured using a Perkin Elmer ViewLux. The quantity of cAMP generated in each well was derived from a standard curve. […]
Readings of EC50 for the listed compounds
measuredQuantity: EC50 (nM)

1. CCc1cnc(N2CCC(ON=C3CCN(c4cc(F)c(CC(=O)N5CC[C@@H](N)C5)cc4F)CC3)CC2)nc1 = 47
2. CCc1cnc(N2CCC(ON=C3CCN(c4cc(F)c(CC(=O)N5CC[C@H](N)C5)cc4F)CC3)CC2)nc1 = 19
3. CCc1cnc(N2CCC(ON=C3CCN(c4cc(F)c(CC(N)=O)cc4F)CC3)CC2)nc1 = 32
4. CCc1cnc(N2CCC(ON=C3CCN(c4cc(F)c(CC(=O)NC5CCN(C)CC5)cc4F)CC3)CC2)nc1 = 76
5. CCc1cnc(N2CCC(ON=C3CCN(c4cc(F)c(CC(=O)NC5CCNCC5)cc4F)CC3)CC2)nc1 = 20
6. CCc1cnc(N2CCC(ON=C3CCN(c4cc(F)c(CC(=O)N5CC[C@H](CN)C5)cc4F)CC3)CC2)nc1 = 8
7. CCc1cnc(N2CCC(ON=C3CCN(c4cc(F)c(CC(=O)N5CCC(N)CC5)cc4F)CC3)CC2)nc1 = 22
